Test system: β-lactamase
experiment notes: Resistant activity against β-lactamase, iodometric assay
Assay type: biochemical, Pseudomonas aeruginosa GN 238
condition description: relative to Potassium Penicillin G = 100
For each of the molecules below, state its Relative activity.
The number alone won't do; follow it with the unit.

Previously resolved entries follow.
molecule	experimental result
CC1(C)S[C@@H]2[C@H](NC(=O)Cc3ccccc3)C(=O)N2[C@H]1C(=O)O [Potassium Penicillin G, reference compound]	100%
CC1(C)S[C@@H]2[C@H](NC(=O)C(c3ccccc3)S(=O)(=O)O)C(=O)N2[C@H]1C(=O)O (stereo partly drawn) [Sodium Sulbenicillin, SodiumSulbenicillin, reference compound]	50%

Let us examine a further case.
Output measured Relative activity for this item: CCCCN1CCN(C(=O)N[C@@H](C(=O)N[C@@H]2C(=O)N3[C@@H]2SC(C)(C)[C@@H]3C(=O)O)c2ccccc2)C(=O)C1=O (single isomer, unassigned)
15%

The reported measurements were obtained from patent US4110327A.
